Molecular target: PAR2 (HT-29 cells, SLIGKV activation) (Homo sapiens)
Construct: host or cells: HT-29 cells
Sequence (P55085 26-397): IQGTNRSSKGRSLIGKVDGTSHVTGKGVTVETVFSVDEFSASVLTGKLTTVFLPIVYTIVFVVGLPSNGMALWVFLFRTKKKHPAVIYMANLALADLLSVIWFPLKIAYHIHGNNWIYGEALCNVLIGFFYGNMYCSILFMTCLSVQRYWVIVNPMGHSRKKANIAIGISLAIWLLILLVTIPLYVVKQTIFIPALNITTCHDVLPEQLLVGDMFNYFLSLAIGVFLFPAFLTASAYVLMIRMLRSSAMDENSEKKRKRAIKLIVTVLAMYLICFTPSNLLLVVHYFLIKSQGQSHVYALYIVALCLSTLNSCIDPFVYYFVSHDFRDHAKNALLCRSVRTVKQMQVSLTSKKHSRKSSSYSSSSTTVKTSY
Experiment: Ca FLIPR TETRA assay, ANTAGONIST mode, stimulation with 8 μM SLIGKV
Type: cell-based
Settings: HT-29 cells, antagonist mode, stimulation with 8 μM SLIGKV
pIC50: −log10 of the molar value.
OBSERVABLE: pIC50

{"COMPOUND": "CC(C)(C)c1cc(-c2ccc(F)cc2)nn2cc(C(=O)N3CCN(C4(CO)CC4)C(=O)C3(C)C)nc12", "DATA VALUE": 8.04}
{"COMPOUND": "Cc1cc(C(=O)N2CCN(C(=O)c3cn4nc(-c5ccc(F)c(C)c5)cc(C(C)(C)C)c4n3)C(C)(C)C2)[nH]n1", "DATA VALUE": 9.22}
{"COMPOUND": "CC(C)c1cc(-c2ccc(F)cc2)nn2cc(C(=O)N3CCN(C(=O)c4ncc[nH]4)CC3(C)C)nc12", "DATA VALUE": 8.60}
{"COMPOUND": "Cc1cc(-c2cc(C(C)C)c3nc(C(=O)N4CCN(c5cn[nH]c5)C(=O)C4(C)C)cn3n2)ccc1F", "DATA VALUE": 8.80}
{"COMPOUND": "CC(C)c1cc(-c2ccc(F)cc2F)nn2cc(C(=O)N3CCNC(=O)C3(C)C)nc12", "DATA VALUE": 7.37}
{"COMPOUND": "CC(C)(O)CC(=O)N1CCN(C(=O)c2cn3nc(-c4ccc(F)cc4)cc(C(C)(C)C)c3n2)C(C)(C)C1", "DATA VALUE": 8.82}
{"COMPOUND": "CC(C)c1cc(-c2ccc(F)cc2)nn2cc(C(=O)N3CCN(C(=O)c4ccncn4)CC3(C)C)nc12", "DATA VALUE": 8.09}
{"COMPOUND": "Cc1cc(-c2cc(C(C)(C)C)c3nc(C(=O)N4CCN(C(=O)c5ccccn5)CC4(C)C)cn3n2)ccc1F", "DATA VALUE": 8.77}
{"COMPOUND": "CC(C)(C)c1cc(-c2ccc(Cl)cc2)nn2cc(C(=O)N3CCN(C(=O)[C@H]4CC[C@@H](C(=O)O)CC4)CC3(C)C)nc12", "DATA VALUE": 10.00}
{"COMPOUND": "CCN1CCN(C(=O)c2cn3nc(-c4ccc(F)cc4)cc(C(C)(C)C)c3n2)C(C)(C)C1=O", "DATA VALUE": 8.27}
{"COMPOUND": "CC(C)(C)c1cc(-c2ccc(F)cc2)nn2cc(C(=O)N3CCN(C(=O)c4cccnc4)CC3(C)C)nc12", "DATA VALUE": 8.70}
{"COMPOUND": "COC(=O)C1CC(C(=O)N2CCN(C(=O)c3cn4nc(-c5ccc(F)cc5)cc(C(C)(C)C)c4n3)C(C)(C)C2)C1 (centres unmarked) [Compound I-538]", "DATA VALUE": 9.10}
{"COMPOUND": "Cc1ccc(-c2cc(C(C)C)c3nc(C(=O)N4CCN(C(=O)c5nc(C)n[nH]5)CC4(C)C)cn3n2)cc1", "DATA VALUE": 8.34}
{"COMPOUND": "C[C@@H]1C(=O)NCCN1C(=O)c1cn2nc(-c3ccc(F)cc3)cc(C(C)(C)C)c2n1", "DATA VALUE": 6.26}

* * *

target: PAR2 (HT-29 cells, trypsin activation) (Homo sapiens); construct: host or cells: HT-29 cells; experiment: Ca FLIPR TETRA assay, ANTAGONIST mode, stimulation with 3.1 U/mL trypsin; type: cell-based; conditions: HT-29 cells, stimulation with 3.1 U/mL trypsin
Sorting guide: entries reporting IC50 beneath 0.04 µM go in the rule met pile, the rest go in the rule not met pile.

{"COMPOUND": "C=CC(=O)N1CCN(C(=O)c2cn3nc(-c4ccc(F)cc4)cc(C(C)C)c3n2)C[C@@H]1C [Compound I-17]", "QUALITATIVE LABEL": "rule not met"}
{"COMPOUND": "CC1(c2cc(-c3ccc(F)cc3)nn3cc(C(=O)N4CCN(C(=O)C5(O)CCOCC5)CC4(C)C)nc23)CC1 [Compound I-31]", "QUALITATIVE LABEL": "rule not met"}
{"COMPOUND": "CC(C)(C)C[C@@H](O)C(=O)N1CCN(C(=O)c2cn3nc(-c4ccc(F)cc4)cc(C(F)(F)F)c3n2)CC1 [Compound I-52]", "QUALITATIVE LABEL": "rule not met"}
{"COMPOUND": "CCOC(=O)[C@H]1CCCN(C(=O)c2cn3nc(-c4ccc(F)cc4)cc(C(F)(F)F)c3n2)[C@@H]1C [Compound I-76]", "QUALITATIVE LABEL": "rule not met"}
{"COMPOUND": "C[C@H]1CN(C(=O)c2cn3nc(-c4ccc(F)cc4)ccc3n2)CCN1C(=O)[C@H](O)CC(C)(C)C [Compound I-13]", "QUALITATIVE LABEL": "rule not met"}
{"COMPOUND": "CC(C)CC(=O)N1CCN(C(=O)c2cn3nc(-c4ccc(F)cc4)cc(C(C)C)c3n2)C[C@@H]1C [Compound I-122]", "QUALITATIVE LABEL": "rule met"}
{"COMPOUND": "CCc1cc(-c2ccc(F)cc2)nn2cc(C(=O)N3CCN(C(=O)[C@H](O)CC(C)(C)C)[C@@H](C)C3)nc12 [Compound I-104]", "QUALITATIVE LABEL": "rule met"}

* * *

target: PAR2 (HT-29 cells, SLIGKV activation) (Homo sapiens, UniProt P55085); construct: host or cells: HT-29 cells; assay: Ca FLIPR TETRA assay, ANTAGONIST mode, stimulation with 8 μM SLIGKV; assay type: cell-based; settings: HT-29 cells, stimulation with 8 μM SLIGKV
pIC50: −log10 of the molar value.

{"MOLECULE": "C[C@H]1CN(C(=O)c2cn3nc(-c4ccc(F)cc4)cc(C(F)(F)F)c3n2)CCN1C(=O)OCc1ccccn1 [Compound I-11]", "pIC50": 7.19}
{"MOLECULE": "CC(C)c1cc(-c2ccc(F)cc2)nn2cc(C(=O)N3CCN(C(=O)[C@H](O)C4CCCCC4)[C@@H](C)C3)nc12 [Compound I-114]", "pIC50": 9.30}
{"MOLECULE": "C=CC(=O)N1CCN(C(=O)c2cn3nc(-c4ccc(F)cc4)cc(C(C)C)c3n2)C(C)(C)C1 [Compound I-160]", "pIC50": 8.00}
{"MOLECULE": "CC(O)CC(=O)N1CCN(C(=O)c2cn3nc(-c4ccc(F)cc4)cc(C(C)C)c3n2)C[C@@H]1C (some centres unmarked) [Compound I-123]", "pIC50": 6.70}
{"MOLECULE": "CC(C)c1cc(C#CC2CC2)nn2cc(C(=O)N3CCN(C(=O)C4(O)CCC4)CC3(C)C)nc12 [Compound I-42]", "pIC50": 5.66}
{"MOLECULE": "CN(C(=O)OC(C)(C)C)C1CCN(C(=O)c2cn3nc(-c4ccc(F)cc4)cc(C(F)(F)F)c3n2)CC1 [Compound I-77]", "pIC50": 6.17}
{"MOLECULE": "CC(C)c1cc(-c2ccc(F)cc2)nn2cc(C(=O)N3CCN(C(=O)[C@H](O)c4ccccc4Cl)[C@@H](C)C3)nc12 [Compound I-106]", "pIC50": 9.22}
{"MOLECULE": "CC(C)c1cc(-c2ccc(F)cc2)nn2cc(C(=O)N3CCN(C(=O)C(C)(C)N)[C@@H](C)C3)nc12 [Compound I-157]", "pIC50": 5.24}

* * *

We begin with a simple list: items and their reported IC50.
Molecular target: PAR2 (HT-29 cells, trypsin activation) (Homo sapiens, UniProt P55085)
Construct: host or cells: HT-29 cells
Sequence (P55085 26-397): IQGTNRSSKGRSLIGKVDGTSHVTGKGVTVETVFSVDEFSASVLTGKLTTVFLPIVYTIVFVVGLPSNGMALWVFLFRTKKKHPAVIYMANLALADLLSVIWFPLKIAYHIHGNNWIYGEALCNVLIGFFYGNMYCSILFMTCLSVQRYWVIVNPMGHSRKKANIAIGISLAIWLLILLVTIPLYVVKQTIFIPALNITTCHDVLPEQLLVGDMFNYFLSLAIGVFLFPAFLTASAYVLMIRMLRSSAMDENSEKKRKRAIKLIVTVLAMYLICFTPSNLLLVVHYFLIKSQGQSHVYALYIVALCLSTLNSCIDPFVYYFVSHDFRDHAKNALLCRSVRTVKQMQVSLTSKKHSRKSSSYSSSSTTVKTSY
Test: Ca FLIPR TETRA assay, ANTAGONIST mode, stimulation with 3.1 U/mL trypsin
Type: cell-based
Conditions: HT-29 cells, antagonist mode, stimulation with 3.1 U/mL trypsin
Procedure: Example 60: Protocol for Testing PAR2 Compounds in ANTAGONIST Mode Using the Ca FLIPR^TETRA Assay (384 Well) […] A first read was performed to determine whether the test compounds on their own can activate Ca2+ responses. The cells were incubated with the compounds for 30 min at r. t. and then read in ANTAGONIST mode in the same plate by stimulating with 6.2 uL of a fixed concentration of the activator: final concentrations: 8 μM SLIGKV, 1 U/mL Thrombin, 3.1 U/mL trypsin, or 0.6 μM UTP.
OBSERVABLE: IC50 (nM)

{"SMILES ENTRY": "CC(C)(C)c1cc(-c2ccc(F)cc2)nn2cc(C(=O)N3CCN(C(=O)c4cccnc4)CC3(C)C)nc12", "OBSERVABLE": "IC50", "UNIT STRING": "nM", "DATA VALUE": 2.8}
{"SMILES ENTRY": "Cc1cccc(-c2cc(C(C)(C)C)c3nc(C(=O)N4CCN(C(=O)c5nc(C)n[nH]5)CC4(C)C)cn3n2)c1", "OBSERVABLE": "IC50", "UNIT STRING": "nM", "DATA VALUE": 4.3}
{"SMILES ENTRY": "CC(C)(C)c1cc(-c2ccc(F)cc2)nn2cc(C(=O)N3CCN(c4cn[nH]c4)C(=O)C3(C)C)nc12", "OBSERVABLE": "IC50", "UNIT STRING": "nM", "DATA VALUE": 1}
{"SMILES ENTRY": "Cc1ccc(-c2cc(C(C)C)c3nc(C(=O)N4CCNC(=O)C4(C)C)cn3n2)cc1", "OBSERVABLE": "IC50", "UNIT STRING": "nM", "DATA VALUE": 7.7}
